Source: patent US12144808B2

- Assay notes: Example 1A: pharmacokinetics of subcutaneous (SC) and sublingual (SL) dosing in dogs
- Type: in vivo
- Details: male, beagle, dog, SL, 1 mg/kg, tosylate salt, plasma
Give measured Cmax for each item. Keep answers brief.
Give the value; after it, write the unit.

* [2H]C1([2H])CN2c3c(cccc3N1C)[C@@H]1CN(CCCC(=O)c3ccc(F)cc3)CC[C@@H]12 | 562 ng/mL

Next, consider the following compound.
Query block: I would be grateful if you could share the reported Cmax for CN1CCN2c3c(cccc31)[C@@H]1CN(CCCC(=O)c3ccc(F)cc3)CC[C@@H]12 .
Result block: 259 ng/mL

----------
- Assay notes: Example 1A: pharmacokinetics of subcutaneous (SC) and sublingual (SL) dosing in dogs
- Format: in vivo
- Details: male, beagle, dog, SL, 1 mg/kg, tosylate salt, plasma, 0-24 hours
Measured endpoint: AUC (ng·h/mL)
Give bare numbers, in ng·h/mL.

- [2H]C1([2H])CN2c3c(cccc3N1C)[C@@H]1CN(CCCC(=O)c3ccc(F)cc3)CC[C@@H]12: 1260

Query block: Entry CN1CCN2c3c(cccc31)[C@@H]1CN(CCCC(=O)c3ccc(F)cc3)CC[C@@H]12 has what AUC?
Result block: 734
